Recorded values, source patent US9409952B2.

Recorded Papp at 18 hours, 50 µM values for a group of compounds are listed next.
- ASSAY: PAMPA (parallel artificial membrane permeability assay)
- Type: in vitro ADME
- EXPERIMENTAL CONTEXT: PAMPA, pH 6.5
Positions of bridges follow the written chain, without caps; N, C: chain ends. Non-standard residues stand in square brackets, D forms with d. Residues, ends and D or L forms follow the SMILES beside them. *: point of attachment. NMeF = CN[C@@H](Cc1ccccc1)C(=O)O; NMeL = CN[C@@H](CC(C)C)C(=O)O; NMeV = CN[C@H](C(=O)O)C(C)C; NMeA = CN[C@@H](C)C(=O)O; Piperidide = C1CCN(*)CC1; dNMeA = CN[C@H](C)C(=O)O; β3hA = C[C@H](N)CC(=O)O; Sar = CNCC(=O)O; tBu = CC(C)(C)*
MEASURED PROPERTY: Papp at 18 hours, 50 µM (×10⁻⁶ cm/s)

- CC[C@H](C)[C@@H]1NC(=O)[C@H](C)NC(=O)C[C@H](C)NC(=O)[C@H](CC(C)C)NC(=O)[C@H](CC(C)C)NC(=O)[C@H](C(C)C)NC(=O)[C@H](C)N(C)C(=O)[C@H](CC(C)C)NC(=O)CNC(=O)[C@H]([C@@H](C)O)NC(=O)[C@H](CC(C)C)N(C)C(=O)[C@@H]2CCCN2C1=O [DP-808] (cyclo(AIP[NMeL]TGL[NMeA]VLL[β3hA])): 3.3
- CC[C@H](C)[C@@H]1NC(=O)[C@@H](C)N(C)C(=O)C[C@@H](C(=O)N(C)[C@@H](Cc2ccccc2)C(=O)N[C@@H](C)C(=O)N2CCCCC2)NC(=O)[C@H](Cc2ccccc2)N(C)C(=O)[C@H](C)NC(=O)[C@H](CC(C)C)N(C)C(=O)[C@H](C)N(C)C(=O)[C@H]([C@@H](C)O)NC(=O)[C@H](C(C)C)N(C)C(=O)[C@H](C)N(C)C1=O [DP-124] ([dNMeA]I[NMeA][NMeV]T[NMeA][NMeL]A[NMeF]D[NMeF]A-Piperidide; lactam N-10): 20
- CC(C)C[C@@H]1NC(=O)[C@H](Cc2ccccc2)NC(=O)[C@H](CC(C)C)N(C)C(=O)[C@H](Cc2ccccc2)NC(=O)[C@@H](C)N(C)C(=O)C[C@H](C)NC(=O)[C@H](Cc2ccccc2)N(C)C(=O)CNC(=O)[C@H]([C@@H](C)O)NC(=O)[C@H](CC(C)C)NC1=O [DP-784] (cyclo(FLLTG[NMeF][β3hA][dNMeA]F[NMeL])): 46
- CC(C)C[C@H]1C(=O)N[C@@H](COC(C)(C)C)C(=O)N[C@H](C(=O)N2CCCCC2)CC(=O)N(C)[C@@H](C)C(=O)N(C)[C@@H](C)C(=O)N(C)[C@@H](Cc2ccccc2)C(=O)N(C)[C@@H](CC(C)C)C(=O)N[C@@H]([C@@H](C)O)C(=O)N(C)CC(=O)N1C [DP-39] ([NMeA][NMeA][NMeF][NMeL]T[Sar][NMeL]S(tBu)D-Piperidide; lactam N-9): 16
- CC[C@H](C)[C@@H]1NC(=O)[C@H](C)NC(=O)C[C@@H](C(=O)N2CCCCC2)NC(=O)[C@H](CC(C)C)NC(=O)[C@H](CC(C)C)NC(=O)[C@H](C(C)C)NC(=O)[C@H](C)N(C)C(=O)[C@H](Cc2ccccc2)NC(=O)CNC(=O)[C@H]([C@@H](C)O)NC(=O)[C@H](CC(C)C)N(C)C(=O)[C@@H]2CCCN2C1=O [DP-5] (AIP[NMeL]TGF[NMeA]VLLD-Piperidide; lactam N-12): 13
